# measurement notes: Plasma concentration at 7 hr after intravenous dosing
# Type: ADME
experimental endpoint: concentration at 7 h (ng/mL)

compound	experimental value
CC#C[C@]1(O)CC[C@H]2[C@@H]3CCC4=CC(=O)CCC4=C3[C@@H](c3ccc(N(C)CCCC4OC(C(=O)O)C(O)C(O)C4O)cc3)C[C@@]21C (stereo partly specified)	3

====

# measurement notes: Plasma clearance by iv administration at a dose 5 mg/kg
# measurement setup: read-out: Clp (converted)

compound	clearance, mL/min/kg
CC#C[C@]1(O)CC[C@H]2[C@@H]3CCC4=CC(=O)CCC4=C3[C@@H](c3ccc(N(C)CCCC4OC(C(=O)O)C(O)C(O)C4O)cc3)C[C@@]21C (stereo partly specified)	88.3
